assay: Cmax in fasted Sprague-Dawley rat at 2 mg/kg, po; type: ADME, organism-based; set-up: dose 2 mg/kg, route oral; settings: in vivo

{"structure_as_smiles": "CC(C)CN1CCN(c2nc3c(c(Nc4ccc(C(F)(F)F)cc4)n2)CCN(c2ncccc2C(F)(F)F)CC3)CC1", "units_label": "nM", "Cmax": 300}

###

target: UniProtKB Q8NER1; assay: Inhibition of human TRPV1 expressed in HEK cells; format: cell-based, HEK293
Sequence (Q8NER1 whole entry): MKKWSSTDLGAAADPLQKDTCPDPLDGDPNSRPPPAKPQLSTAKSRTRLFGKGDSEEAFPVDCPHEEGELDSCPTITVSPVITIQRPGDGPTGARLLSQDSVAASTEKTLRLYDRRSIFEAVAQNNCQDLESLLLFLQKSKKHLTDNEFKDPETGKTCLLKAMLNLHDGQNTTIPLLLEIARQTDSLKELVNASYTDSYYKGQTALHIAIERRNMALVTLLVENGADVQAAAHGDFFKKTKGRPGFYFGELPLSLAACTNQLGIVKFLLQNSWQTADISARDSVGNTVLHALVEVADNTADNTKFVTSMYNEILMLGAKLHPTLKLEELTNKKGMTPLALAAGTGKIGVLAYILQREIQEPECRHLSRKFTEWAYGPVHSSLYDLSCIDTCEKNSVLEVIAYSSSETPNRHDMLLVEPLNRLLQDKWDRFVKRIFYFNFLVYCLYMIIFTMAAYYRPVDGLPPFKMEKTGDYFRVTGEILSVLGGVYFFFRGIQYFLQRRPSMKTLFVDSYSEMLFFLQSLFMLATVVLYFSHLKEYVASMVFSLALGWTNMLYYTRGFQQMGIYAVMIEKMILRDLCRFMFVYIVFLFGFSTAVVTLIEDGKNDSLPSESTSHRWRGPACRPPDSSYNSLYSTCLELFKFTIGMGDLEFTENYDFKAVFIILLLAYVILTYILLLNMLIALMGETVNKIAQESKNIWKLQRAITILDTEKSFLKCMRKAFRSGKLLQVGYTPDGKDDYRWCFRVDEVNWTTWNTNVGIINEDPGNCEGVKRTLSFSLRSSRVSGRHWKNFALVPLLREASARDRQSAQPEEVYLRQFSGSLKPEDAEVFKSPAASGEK

{"structure_as_smiles": "CC(C)CN1CCN(c2nc3c(c(Nc4ccc(C(F)(F)F)cc4)n2)CCN(c2ncccc2C(F)(F)F)CC3)CC1", "IC50 / nM": 67}
